The origin of these recorded values is patent US8664257B2.

- measurement_target: Recombinant human cathepsin A (Homo sapiens, UniProt P10619)
- Construct: Recombinant human cathepsin A (residues 29-480, with a C-terminal 10-His tag); 10-His (C); purchased R&D Systems 1049-SE
- Sequence (P10619 29-312 limits assumed): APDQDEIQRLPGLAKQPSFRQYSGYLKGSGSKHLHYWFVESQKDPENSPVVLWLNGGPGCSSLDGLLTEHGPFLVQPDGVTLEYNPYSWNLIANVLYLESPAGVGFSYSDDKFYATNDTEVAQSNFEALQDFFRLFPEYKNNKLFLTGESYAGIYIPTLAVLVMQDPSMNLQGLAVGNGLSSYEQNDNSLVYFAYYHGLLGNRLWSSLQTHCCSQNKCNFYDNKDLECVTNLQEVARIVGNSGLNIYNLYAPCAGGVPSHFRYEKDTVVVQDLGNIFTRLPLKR
- Sequence (P10619 327-480 limits assumed): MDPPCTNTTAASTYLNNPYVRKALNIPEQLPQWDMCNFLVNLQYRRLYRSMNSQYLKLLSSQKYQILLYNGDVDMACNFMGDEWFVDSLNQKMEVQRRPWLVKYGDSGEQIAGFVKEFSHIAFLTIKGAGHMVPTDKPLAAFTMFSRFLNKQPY
- experiment_description: Cathepsin A inhibitory activity
- Assay type: biochemical
- assay_conditions: read-out: Activity (2): Cathepsin A inhibitory activity, IC50 class
- From the text: a) Cathepsin A Inhibitory Activity Recombinant human cathepsin A (residues 29-480, with a C-terminal 10-His tag; R&D Systems, #1049-SE) was proteolytically activated with recombinant human cathepsin L (R&D Systems, #952-CY). […] Uncleaved substrate and product were then separated by a microfluidic capillary electrophoresis on a LabChip® 3000 Drug Discovery System (12-Sipper-Chip; Caliper Life Sciences) and quantified by determination of the respective peak areas. […]
pIC50: −log10 of the molar value.
Reported pIC50 by item:

These solved cases illustrate the format of a correct answer.
O=C(O)CC(NC(=O)c1cc(O)n(-c2ccccc2F)n1)c1ccc(Oc2ccccc2)cc1 (stereo not shown)
6.00 to 7.00
Cc1cccc([C@H](CC(=O)O)NC(=O)c2cc(OCC(=O)C(C)(C)C)n(-c3ccccc3F)n2)c1
> 7.00
Cc1cccc([C@H](CC(=O)O)NC(=O)c2cc(OC[C@H](O)C(C)(C)C)n(-c3ccccc3F)n2)c1
> 7.00
CC(C)[C@@](C)(O)COc1cc(C(=O)NC(CC(=O)O)Cc2ccccc2)nn1-c1ccccc1F (stereo partly shown)
> 7.00
O=C(O)C[C@H](NC(=O)c1cc(O)n(-c2ccc(F)cc2)n1)c1ccccc1C(F)(F)F
6.00 to 7.00
O=C(O)CC(NC(=O)c1cc(O)n(-c2cccc(F)c2)n1)c1ccc(Oc2ccccc2)cc1 (stereo not shown)
6.00 to 7.00

Please examine the following record next.
Query :: What measured pIC50 goes with `CC(C)(C)[C@](C)(O)COc1cc(C(=O)N[C@@H](CC(=O)O)c2ccccc2F)nn1-c1ccccc1F` ?
Result :: > 7.00
